SYSTEM: E. coli MTAN (Escherichia coli)
Sequence (P0AF12 whole entry): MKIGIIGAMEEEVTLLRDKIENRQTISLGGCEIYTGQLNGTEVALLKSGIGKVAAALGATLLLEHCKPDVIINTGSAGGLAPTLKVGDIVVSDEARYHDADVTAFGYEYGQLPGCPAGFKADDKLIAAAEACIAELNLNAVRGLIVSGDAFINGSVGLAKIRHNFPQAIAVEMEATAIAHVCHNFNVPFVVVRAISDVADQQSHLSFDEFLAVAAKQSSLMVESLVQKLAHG
Counter-ions that a name gives are not always drawn.
Reported pKi values for the following molecules.
Keep it numeric: pKi is minus log10 of the concentration in mol/L.

Value of measured pKi for the entry CSCC1(CO)CN(Cc2c[nH]c3c(N)ncnc23)C1 [Compound 21, hydrochloride] : 9.08

More entries:
Value of measured pKi for the entry "CSCC1CN(Cc2c[nH]c3c(N)ncnc23)C1" : 9.35

* * *

Reported Ki values for the following compounds.
SYSTEM: Human MTAP (Homo sapiens, UniProt Q13126)
Sequence (Q13126 1-283): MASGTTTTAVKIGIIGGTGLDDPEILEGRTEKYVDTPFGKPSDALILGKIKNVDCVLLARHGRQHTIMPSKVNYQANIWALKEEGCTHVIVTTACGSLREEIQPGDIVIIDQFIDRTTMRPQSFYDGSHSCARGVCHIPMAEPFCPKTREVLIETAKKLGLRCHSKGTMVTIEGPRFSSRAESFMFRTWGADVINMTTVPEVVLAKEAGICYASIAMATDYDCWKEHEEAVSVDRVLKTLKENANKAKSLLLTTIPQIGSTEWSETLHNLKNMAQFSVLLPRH
Where a name gives a salt, the structure may show the parent alone.
// note: answer is a bare numeric in nM

GET /values?item= CSCC1(CO)CN(Cc2c[nH]c3c(N)ncnc23)C1 [Compound 21, hydrochloride] &system= Human MTAP (Homo sapiens, UniProt Q13126) returns Ki: 140

Attention now turns to another entry.
GET /values?item= CSCC1CN(Cc2c[nH]c3c(N)ncnc23)C1 [Compound 22] &system= Human MTAP (Homo sapiens, UniProt Q13126) returns Ki: 2

Value source: patent US8283345B2
